Origin of measurements: PubChem BioAssay (NCI)

# Tested on: ACHN renal
# ASSAY_NAME: NCI-60 one-dose screen, 48 h (100 = growth as untreated, 0 = no growth, -100 = all killed)
# MEASUREMENT_SETUP: 10 µM unless noted
Compounds without any hit were thinned out: in the full panel of roughly 83,000, 20% have a hit.
Please use 1 (yes) whenever growth is not below 50%, and 0 (no) whenever it is.

| MOLECULE | ASSAY_TARGET | CLASS_ASSIGNMENT |
| --- | --- | --- |
| CCNC(=O)C#Cc1ccc2c(C(=Nc3ccc(CN(C)C)cc3)c3ccccc3)c(O)[nH]c2c1 | ACHN renal | 0 (no) |
| C=C1C(=O)O[C@H]2[C@H]1CC/C(Cn1cc(-c3cc(C)c(C)cc3C)nn1)=C\CC[C@@]1(C)O[C@@H]21 | ACHN renal | 0 (no) |
| CCCCOc1nc2cc(Cl)ccc2cc1/C=C/c1cc(/C=C/c2cc3ccc(Cl)cc3nc2OCCCC)n(-c2ccccc2)n1 | ACHN renal | 1 (yes) |
| Cc1nn(-c2nc3ccccc3[nH]2)c2c1C(c1ccc(OCc3ccc(F)cc3)cc1)CC(=O)N2 (stereo not given) | ACHN renal | 0 (no) |
| O=C(CNc1nc2ccccc2s1)Nc1ccc(-c2nc3ccccc3s2)cc1 | ACHN renal | 1 (yes) |
